Molecular target: recombinant human mu opioid receptor (Homo sapiens)
Construct: expressed in transfected cells; host or cells: HEK293 (membranes)
Sequence (P35372 whole entry): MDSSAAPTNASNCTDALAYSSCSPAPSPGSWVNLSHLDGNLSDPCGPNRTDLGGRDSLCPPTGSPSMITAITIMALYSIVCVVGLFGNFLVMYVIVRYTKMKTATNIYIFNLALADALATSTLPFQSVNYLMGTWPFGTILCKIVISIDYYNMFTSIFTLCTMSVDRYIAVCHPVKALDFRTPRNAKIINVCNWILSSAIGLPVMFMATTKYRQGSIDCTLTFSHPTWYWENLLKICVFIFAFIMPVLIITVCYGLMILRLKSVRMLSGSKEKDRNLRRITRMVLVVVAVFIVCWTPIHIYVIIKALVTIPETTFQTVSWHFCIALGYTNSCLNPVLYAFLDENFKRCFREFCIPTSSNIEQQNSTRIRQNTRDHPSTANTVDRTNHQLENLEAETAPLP
Experiment: Opioid receptor radioligand binding assay, mu
Conditions: Binding Affinity Mu IC50, membranes of HEK293 cells; radioligand [3H]DAMGO 0.5 nM
parameter: pIC50
Notebook: values listed as pIC50 are -log10 of the concentration (mol/L).

Look at this compound and give its reported pIC50. CN(C(=O)[C@H]1C[C@@H]1c1ccoc1)[C@@H]1CC[C@@]2(O)[C@H]3Cc4ccc(O)c5c4[C@@]2(CCN3CC2(O)CC2)[C@H]1O5 [Compound 17a] 8.30

----------
Target: recombinant human mu opioid receptor (Homo sapiens)
Construct: expressed in transfected cells; host or cells: HEK293 (membranes)
Experiment: Opioid receptor radioligand binding assay, mu
Details: Binding Affinity Mu IC50, membranes of HEK293 cells; radioligand [3H]DAMGO 0.5 nM
We begin with a simple list: items and their reported pIC50.
Note: pIC50 values are expressed as the negative base-10 logarithm of concentration in M.

# query: pIC50 | item CN(C(=O)C1CC1c1ccc(O)cc1)C1CCC2(O)C3Cc4ccc(O)c5c4C2(CCN3CC2(O)CC2)C1O5 (single isomer, unassigned) [Compound 21a] | system: recombinant human mu opioid receptor (Homo sapiens) 8.90

Next:
Look up pIC50 with recombinant human mu opioid receptor (Homo sapiens) for this molecule: CN(C(=O)[C@@H]1C[C@H]1c1ccsc1)[C@@H]1CC[C@@]2(O)[C@H]3Cc4ccc(O)c5c4[C@@]2(CCN3CC2(O)CC2)[C@H]1O5 [Compound 19b] 8.22

Request body: readout pIC50, system recombinant human mu opioid receptor (Homo sapiens), query CN(C(=O)[C@@H]1C[C@H]1c1ccoc1)[C@H]1CC[C@@]2(O)[C@H]3Cc4ccc(O)c5c4[C@@]2(CCN3CC2CC2)[C@H]1O5 . Return the value. 9.28

Give recombinant human mu opioid receptor (Homo sapiens) pIC50 for CN(C(=O)[C@H]1C[C@@H]1c1ccoc1)[C@@H]1CC[C@@]2(O)[C@H]3Cc4ccc(O)c5c4[C@@]2(CCN3CC2CC2)[C@H]1O5 7.97

Test system recombinant human mu opioid receptor (Homo sapiens); read-out pIC50; what value for CN(C(=O)[C@@H]1C[C@H]1c1ccoc1)[C@@H]1CC[C@@]2(O)[C@H]3Cc4ccc(O)c5c4[C@@]2(CCN3CC2(O)CC2)[C@H]1O5 [Compound 17b] ? 7.34

Record CN(C(=O)C1CC1c1ccoc1)C1CCC2(O)C3Cc4ccc(O)c5c4C2(CCN3CC2(O)CC2)C1O5 (single isomer, unassigned) [Compound 16a] : what is its pIC50 with recombinant human mu opioid receptor (Homo sapiens)? 8.81

API: value(readout= pIC50, system= recombinant human mu opioid receptor (Homo sapiens), query= CN(C(=O)[C@@H]1C[C@H]1c1ccc(O)cc1)[C@@H]1CC[C@@]2(O)[C@H]3Cc4ccc(O)c5c4[C@@]2(CCN3CC2(O)CC2)[C@H]1O5 [Compound 21b] ) 6.94

# returns recorded pIC50 (system: recombinant human mu opioid receptor (Homo sapiens)) for CN(C(=O)C1CC1c1ccoc1)C1CCC2(O)C3Cc4ccc(O)c5c4C2(CCN3CC2(O)CC2)C1O5 (single isomer, unassigned) [Compound 16b] 8.14

Give pIC50 (recombinant human mu opioid receptor (Homo sapiens)) of the following molecule: CN(C(=O)C1CC1c1ccsc1)C1CCC2(O)C3Cc4ccc(O)c5c4C2(CCN3CC2(O)CC2)C1O5 (single isomer, unassigned) [Compound 19a] 8.86

# value lookup — system recombinant human mu opioid receptor (Homo sapiens), readout pIC50, item CN(C(=O)[C@@H]1C[C@H]1c1ccoc1)[C@@H]1CC[C@@]2(O)[C@H]3Cc4ccc(O)c5c4[C@@]2(CCN3CC2CC2)[C@H]1O5 8.46

----------
Selectivity δ/k by entry:
Target: recombinant human delta opioid receptor (Homo sapiens, UniProt P41143)
Construct: expressed in transfected cells; host or cells: HEK293 (membranes)
Sequence (P41143 whole entry): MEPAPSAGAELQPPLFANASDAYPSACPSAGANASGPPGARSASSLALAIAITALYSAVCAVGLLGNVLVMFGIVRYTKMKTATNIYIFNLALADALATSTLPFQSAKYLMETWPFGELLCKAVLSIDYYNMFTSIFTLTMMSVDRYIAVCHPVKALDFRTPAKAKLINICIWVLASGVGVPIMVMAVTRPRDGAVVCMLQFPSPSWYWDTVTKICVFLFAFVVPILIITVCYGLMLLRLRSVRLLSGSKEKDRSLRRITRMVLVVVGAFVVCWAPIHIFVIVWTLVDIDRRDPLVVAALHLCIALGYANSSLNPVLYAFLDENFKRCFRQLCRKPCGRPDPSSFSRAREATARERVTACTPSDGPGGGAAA
Test: Opioid receptor radioligand binding assay, delta
Conditions: ratio of Delta IC50 to Kappa IC50
Hey, just send me the number, nothing else.

Any idea what Selectivity δ/k was measured for CN(C(=O)[C@@H]1C[C@H]1c1ccsc1)[C@@H]1CC[C@@]2(O)[C@H]3Cc4ccc(O)c5c4[C@@]2(CCN3CC2(O)CC2)[C@H]1O5 [Compound 19b] ? 319

Give the measured Selectivity δ/k of CN(C(=O)[C@H]1C[C@@H]1c1ccoc1)[C@@H]1CC[C@@]2(O)[C@H]3Cc4ccc(O)c5c4[C@@]2(CCN3CC2CC2)[C@H]1O5 . 207.59

I have this molecule here, CN(C(=O)[C@@H]1C[C@H]1c1ccc(O)cc1)[C@H]1CC[C@@]2(O)[C@H]3Cc4ccc(O)c5c4[C@@]2(CCN3CC2(O)CC2)[C@H]1O5 [Compound 20b] , and I need its recorded Selectivity δ/k. 0.73

Which Selectivity δ/k is listed for CN(C(=O)C1CC1c1ccc(O)cc1)C1CCC2(O)C3Cc4ccc(O)c5c4C2(CCN3CC2(O)CC2)C1O5 (single isomer, unassigned) [Compound 20a] ? 1.57

New cases:
Request the reported Selectivity δ/k associated with CN(C(=O)C1CC1c1ccoc1)C1CCC2(O)C3Cc4ccc(O)c5c4C2(CCN3CC2(O)CC2)C1O5 (single isomer, unassigned) [Compound 16a] 5.80

So what does the record say about Selectivity δ/k for CN(C(=O)[C@H]1C[C@@H]1c1ccoc1)[C@H]1CC[C@@]2(O)[C@H]3Cc4ccc(O)c5c4[C@@]2(CCN3CC2CC2)[C@H]1O5 ? 12.6

Find the recorded Selectivity δ/k belonging to CN(C(=O)C1CC1c1ccsc1)C1CCC2(O)C3Cc4ccc(O)c5c4C2(CCN3CC2(O)CC2)C1O5 (single isomer, unassigned) [Compound 18a] and report it. 11.3

----------
Target: recombinant human kappa opioid receptor (Homo sapiens, UniProt P41145)
Sequence (P41145 whole entry): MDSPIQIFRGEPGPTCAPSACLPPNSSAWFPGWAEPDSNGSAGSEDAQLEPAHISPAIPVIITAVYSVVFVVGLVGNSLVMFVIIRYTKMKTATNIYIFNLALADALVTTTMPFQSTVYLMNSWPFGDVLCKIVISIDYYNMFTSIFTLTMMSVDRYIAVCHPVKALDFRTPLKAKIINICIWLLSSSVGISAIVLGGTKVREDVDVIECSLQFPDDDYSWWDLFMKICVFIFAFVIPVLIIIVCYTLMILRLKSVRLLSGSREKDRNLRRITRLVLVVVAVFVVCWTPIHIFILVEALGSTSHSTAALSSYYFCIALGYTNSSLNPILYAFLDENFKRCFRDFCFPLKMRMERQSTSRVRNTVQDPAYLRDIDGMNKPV
Assay: cell-based
Conditions: read-out: Cell Assay (FLIPR Calcium) Kappa EC50
Form field: pEC50 (one value per entry).
Note on units: pEC50 is unitless, being -log10 of a concentration expressed in mol/L.

In the examples that follow, each entry is paired with its recorded pEC50.
Return reported pEC50; argument: CN(C(=O)[C@H]1C[C@@H]1c1ccoc1)[C@@H]1CC[C@@]2(O)[C@H]3Cc4ccc(O)c5c4[C@@]2(CCN3CC2CC2)[C@H]1O5 8.58

I have this compound here, CN(C(=O)[C@H]1C[C@@H]1c1ccoc1)[C@H]1CC[C@@]2(O)[C@H]3Cc4ccc(O)c5c4[C@@]2(CCN3CC2CC2)[C@H]1O5 , and I need its recorded pEC50. 8.16

Continuing:
Could you share which pEC50 value was measured for CN(C(=O)[C@@H]1C[C@H]1c1ccoc1)[C@H]1CC[C@@]2(O)[C@H]3Cc4ccc(O)c5c4[C@@]2(CCN3CC2CC2)[C@H]1O5 ? 8.42

What measured pEC50 goes with CN(C(=O)[C@@H]1C[C@H]1c1ccoc1)[C@@H]1CC[C@@]2(O)[C@H]3Cc4ccc(O)c5c4[C@@]2(CCN3CC2CC2)[C@H]1O5 ? 8.01

----------
Biological target: recombinant human kappa opioid receptor (Homo sapiens)
Assay: biochemical
Details: membranes of HEK293 cells; radioligand [3H]diprenorphine 0.5 nM; read-out: Binding Affinity Kappa IC50
Rule: IC50 below 0.8 nM gives yes, anything at or above gives no.

These recorded examples may help you get a feel for the data.
Quick check: IC50 of CN(C(=O)[C@@H]1C[C@H]1c1ccoc1)[C@H]1CC[C@@]2(O)[C@H]3Cc4ccc(O)c5c4[C@@]2(CCN3CC2CC2)[C@H]1O5 [Compound 7b] under 0.8 nM? yes

Strictly below 0.8 nM in IC50? CN(C(=O)C1CC1c1ccc(O)cc1)C1CCC2(O)C3Cc4ccc(O)c5c4C2(CCN3CC2(O)CC2)C1O5 (single isomer, unassigned) [Compound 20a] no

Dear colleague, could you confirm whether IC50 of CN(C(=O)[C@@H]1C[C@H]1c1ccoc1)[C@@H]1CC[C@@]2(O)[C@H]3Cc4ccc(O)c5c4[C@@]2(CCN3CC2(O)CC2)[C@H]1O5 [Compound 17b] falls below 0.8 nM? Thanks. no

---
Quick check: IC50 of CN(C(=O)[C@@H]1C[C@H]1c1ccsc1)[C@@H]1CC[C@@]2(O)[C@H]3Cc4ccc(O)c5c4[C@@]2(CCN3CC2(O)CC2)[C@H]1O5 [Compound 19b] under 0.8 nM? yes

Problem: For the compound CN(C(=O)[C@H]1C[C@@H]1c1ccoc1)[C@@H]1CC[C@@]2(O)[C@H]3Cc4ccc(O)c5c4[C@@]2(CCN3CC2CC2)[C@H]1O5 [Compound 5a] , is IC50 under 0.8 nM? yes

Hi there! Is IC50 for CN(C(=O)C1CC1c1ccoc1)C1CCC2(O)C3Cc4ccc(O)c5c4C2(CCN3CC2(O)CC2)C1O5 (single isomer, unassigned) [Compound 16a] below 0.8 nM, do you know? no

A record lists CN(C(=O)[C@H]1C[C@@H]1c1ccoc1)[C@H]1CC[C@@]2(O)[C@H]3Cc4ccc(O)c5c4[C@@]2(CCN3CC2CC2)[C@H]1O5 [Compound 7a] . Is its IC50 below 0.8 nM? yes

Given CN(C(=O)C1CC1c1ccsc1)C1CCC2(O)C3Cc4ccc(O)c5c4C2(CCN3CC2(O)CC2)C1O5 (single isomer, unassigned) [Compound 19a] , is recorded IC50 strictly lower than 0.8 nM? yes

hey, is IC50 for CN(C(=O)C1CC1c1ccsc1)C1CCC2(O)C3Cc4ccc(O)c5c4C2(CCN3CC2(O)CC2)C1O5 (single isomer, unassigned) [Compound 18a] lower than 0.8 nM or not? no
